B1: Azoarcus group I ribozyme (parent)
chain: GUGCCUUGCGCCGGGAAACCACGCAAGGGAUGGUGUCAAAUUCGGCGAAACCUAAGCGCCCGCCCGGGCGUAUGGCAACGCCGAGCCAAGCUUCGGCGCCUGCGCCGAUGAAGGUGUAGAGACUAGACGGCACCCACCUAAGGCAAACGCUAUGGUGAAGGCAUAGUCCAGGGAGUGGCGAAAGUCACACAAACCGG

Variants of: B1
TEST_PROTOCOL: reverse-splicing fitness (ratio to wild type); higher = more active; in vitro selection; Mg2+ level not given
Recorded reverse-splicing fitness determines the group label, using zone 1 (below 0.006), zone 2 (0.006 to below 0.009), zone 3 (0.009 or more)

MUTANT_NAME: C82U A120G A145G C150G C169U U176G
CATEGORY: zone 2
--
MUTANT_NAME: C82G A111U A120U A145C C150U C169A U176G
CATEGORY: zone 1
--
MUTANT_NAME: C82A A111U A145U C169U U176G
CATEGORY: zone 1
--
MUTANT_NAME: C82U A120U A145G C150U U176C
CATEGORY: zone 3
--
MUTANT_NAME: A111U A145U C150A C169U U176G
CATEGORY: zone 2
--
MUTANT_NAME: C82G A111G A120G A145U C150G U176G
CATEGORY: zone 1
--
MUTANT_NAME: C82G A111U A120G A145C C150G C169G U176C
CATEGORY: zone 2
--
MUTANT_NAME: A111G A120G A145C C150G C169A U176C
CATEGORY: zone 3
--
MUTANT_NAME: C82G A111C A120U A145U C169G U176C
CATEGORY: zone 1
--
MUTANT_NAME: C82G A111G A120G C150U C169U U176G
CATEGORY: zone 2
--
MUTANT_NAME: C82A A145C C150U
CATEGORY: zone 3
--
MUTANT_NAME: C82U A111G A145C C150U C169U U176C
CATEGORY: zone 2
--
MUTANT_NAME: C82G A111C A120G A145G C150U C169G U176G
CATEGORY: zone 1
--
MUTANT_NAME: C82A A145G C150G C169U U176G
CATEGORY: zone 2
--
MUTANT_NAME: C82A A111G A120U A145U C150G C169G U176A
CATEGORY: zone 1
--
MUTANT_NAME: C82A A111G A120G A145C C150G
CATEGORY: zone 2
--
MUTANT_NAME: A111C A120C A145C C150A
CATEGORY: zone 3
--
MUTANT_NAME: C82U A111U C150G U176G
CATEGORY: zone 1
--
MUTANT_NAME: C82G A111C A120C A145G C169U
CATEGORY: zone 3
